Would you kindly list KD Relative to Dupilumab for each of these binders?
Biological target: T1, cynomolgus monkey IL-4Rα (cynomolgus monkey, UniProt P24394 26-231 (human entry), limits assumed)
T1 construct: also called Cyno IL-4Rα; cyIL-4Rα
T1 chain: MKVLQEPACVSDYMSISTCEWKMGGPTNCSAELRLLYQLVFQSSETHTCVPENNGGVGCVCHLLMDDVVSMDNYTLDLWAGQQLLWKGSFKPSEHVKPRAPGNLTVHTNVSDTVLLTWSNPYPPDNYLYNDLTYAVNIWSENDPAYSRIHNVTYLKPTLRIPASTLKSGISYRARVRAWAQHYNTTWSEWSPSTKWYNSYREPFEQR
Assay: SPR, Carterra LSA;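 also: antibodies captured on an anti-human Fc sensor chip, antigen injected at several concentrations, association and dissociation rates fitted with a 1:1 Langmuir model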
One number for each entry.

• Construct 30 (mAb439) (antibody, IgG4, V domains shown, VH/VL only) VH: EVQLVESGGGLEQPGGSLRLSCAGSGFTFRDYAMTWVRQAPGKGLEWVSSISGSGGNTYYADSVKGRFTISRDNSKNTLYLQMNSLRAEDTAVYYCAKDRLSITIRPRYYGLDVWGQGTTVTVSS VL: DIVMTQSPLSLPVTPGEPASISCRSSQSLLYSNRNNYLDWYLQKSGQSPQLLIYSASIRASGVPDRFSGSGSGTDFTLKISRVEAEDVGFYYCMQAFQAPYTFGQGTKLEIK = 0.2
• Construct 15 (mAb423) (antibody, IgG4, V domains shown, VH/VL only) VH: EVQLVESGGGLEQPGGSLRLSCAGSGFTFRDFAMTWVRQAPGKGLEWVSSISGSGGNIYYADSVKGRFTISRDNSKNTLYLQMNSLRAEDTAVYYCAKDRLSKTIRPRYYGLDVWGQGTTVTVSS VL: DIVMTQSPLSLPVTPGEPASISCTASQSLLYSIGYNYVDWYLQKSGQSPQLLIYLGNKRASGVPDRFSGSGSGTDFTLKISRVEAEDVGFYYCMQSLTSPYTFGQGTKLEIK = 0.04

Please look at the following binder next.
Lab note: Construct 16 (mAb424) (antibody, IgG4, V domains shown, VH/VL only) VH: EVQLVESGGGLEQPGGSLRLSCAGSGFTFRTYAMTWVRQAPGKGLEWVSSISGSGDNIYYADSVKGRFTISRDNSKNTLYLQMNSLRAEDTAVYYCAKDRLSVTIRPRYYGLDVWGQGTTVTVSS VL: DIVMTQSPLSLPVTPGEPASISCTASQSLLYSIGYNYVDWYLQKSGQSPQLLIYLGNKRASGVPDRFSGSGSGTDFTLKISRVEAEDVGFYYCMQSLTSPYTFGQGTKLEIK gave KD Relative to Dupilumab of 0.14
